Species: Homo sapiens
measurement_description: Hemolytic effect (30 uM) on human erythrocytes upon incubation with lipid for 30 min in pH 7.5
Assay type: functional
readout: Hemolysis (%)
// return numeric value only (unit: %, not printed)

Query block: Retrieve Hemolysis measured for CCCCCCC1(CCCCCCCCCCCOP(=O)([O-])OC2CC[N+](C)(C)CC2)OCC(C)(C)N1[O] (stereo not given) and print it.
Result block: 18.3

====

Species: Homo sapiens
measurement_description: Hemolytic effect (100 uM) on human erythrocytes
Assay type: functional
# Hemolysis values compiled below
// return numeric value only (unit: %, not printed)

# example entries with known answers
CCCCCCC1(CCCCCCCCCCCOP(=O)([O-])OC2CC[N+](C)(C)CC2)OCC(C)(C)N1[O] (stereo not given)    5.7
CCCCCCCCC1(CCCCCCCCCOP(=O)([O-])OC2CC[N+](C)(C)CC2)OCC(C)(C)N1[O] (stereo not given)    5.9
CCCCCCC1(CCCCCCCCCCCOP(=O)([O-])OCC[N+](C)(C)C)OCC(C)(C)N1[O] (stereo not given)    20.3
CCCCCCCCCCCCCC1(CCCCOP(=O)([O-])OC2CC[N+](C)(C)CC2)OCC(C)(C)N1[O] (stereo not given)    17.9

Now turn to the next compound.
Query block: Retrieve Hemolysis measured for CCCCCCCCCCCC1(CCCCCCOP(=O)([O-])OC2CC[N+](C)(C)CC2)OCC(C)(C)N1[O] (stereo not given) and print it.
Result block: 6.7

====

Organism: Homo sapiens
measurement_description: Hemolytic effect (30 uM) on human erythrocytes upon incubation with lipid for 30 min in pH 7.5
Type: functional
# Hemolysis values compiled below
Write down the value, and be sure its unit follows.

# example entries with known answers
CCCCCCCCCCCC1(CCCCCCOP(=O)([O-])OC2CC[N+](C)(C)CC2)OCC(C)(C)N1[O] (centres undefined)    95.2%
CCCCCCCCCCCCCC1(CCCCOP(=O)([O-])OC2CC[N+](C)(C)CC2)OCC(C)(C)N1[O] (centres undefined)    99%
CCCCCCCCC1(CCCCCCCCCOP(=O)([O-])OC2CC[N+](C)(C)CC2)OCC(C)(C)N1[O] (centres undefined)    34.6%

Now turn to the next compound.
Query block: Retrieve Hemolysis measured for CCCCCCC1(CCCCCCCCCCCOP(=O)([O-])OCC[N+](C)(C)C)OCC(C)(C)N1[O] (centres undefined) and print it.
Result block: 98.3%
